Molecular target: T1, human MSLN-FL-his protein (human, UniProt Q13421 296-580)
T1 construct: made in HEK293E cells, purified on nickel column; also called hMSLN-FL-his; human MSLN full-length protein; not shown: His tag
T1 sequence (Q13421 other isoform, or with tags, fused parts or gaps): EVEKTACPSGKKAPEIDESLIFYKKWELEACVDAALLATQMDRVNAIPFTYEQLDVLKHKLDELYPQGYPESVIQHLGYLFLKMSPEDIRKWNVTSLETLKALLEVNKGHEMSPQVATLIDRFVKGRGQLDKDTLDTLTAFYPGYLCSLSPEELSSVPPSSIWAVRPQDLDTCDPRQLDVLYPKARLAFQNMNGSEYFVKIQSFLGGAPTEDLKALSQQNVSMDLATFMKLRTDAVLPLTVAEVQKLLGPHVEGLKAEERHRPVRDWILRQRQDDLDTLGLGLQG
Test: competitive ELISA; row Tab106; also: test concentration or dose not given here
quantity: competition rate
Phrase the answer as number then unit, nothing more needed.

INSERT INTO assay_data (binder, quantity, result) VALUES
  ('S009-F4-94.15 (antibody, human IgG1, kappa, V domains shown, human-murine chimeric antibody, human IgG1/kappa constant regions) VH: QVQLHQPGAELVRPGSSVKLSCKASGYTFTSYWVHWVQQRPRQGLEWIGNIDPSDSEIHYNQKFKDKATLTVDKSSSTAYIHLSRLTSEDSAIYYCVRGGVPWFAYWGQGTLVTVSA VL: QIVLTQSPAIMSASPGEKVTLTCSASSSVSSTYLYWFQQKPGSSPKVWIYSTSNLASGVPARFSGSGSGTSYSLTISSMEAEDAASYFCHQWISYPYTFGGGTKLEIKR', 'competition rate', '19%');

query: Sample S009-F6-76.1 (antibody, human IgG1, kappa, V domains shown, human-murine chimeric antibody, human IgG1/kappa constant regions) VH: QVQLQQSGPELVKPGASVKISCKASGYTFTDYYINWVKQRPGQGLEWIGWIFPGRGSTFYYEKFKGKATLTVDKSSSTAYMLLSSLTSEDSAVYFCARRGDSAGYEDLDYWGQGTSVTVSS VL: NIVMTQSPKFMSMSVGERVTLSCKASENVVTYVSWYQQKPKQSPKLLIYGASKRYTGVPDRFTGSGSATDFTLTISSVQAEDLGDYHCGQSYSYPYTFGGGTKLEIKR — what was its competition rate?
result: 27%

query: Quick one: S009-F2-56.12 (antibody, human IgG1, kappa, V domains shown, human-murine chimeric antibody, human IgG1/kappa constant regions) VH: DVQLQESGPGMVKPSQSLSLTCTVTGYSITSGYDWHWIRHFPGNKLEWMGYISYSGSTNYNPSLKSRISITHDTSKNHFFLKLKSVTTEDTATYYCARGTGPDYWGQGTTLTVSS VL: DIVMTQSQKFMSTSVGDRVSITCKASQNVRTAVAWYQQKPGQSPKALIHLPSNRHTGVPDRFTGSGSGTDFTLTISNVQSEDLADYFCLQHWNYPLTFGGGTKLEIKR
result: 1%

query: And then S009-F6-62.5 (antibody, human IgG1, kappa, V domains shown, human-murine chimeric antibody, human IgG1/kappa constant regions) VH: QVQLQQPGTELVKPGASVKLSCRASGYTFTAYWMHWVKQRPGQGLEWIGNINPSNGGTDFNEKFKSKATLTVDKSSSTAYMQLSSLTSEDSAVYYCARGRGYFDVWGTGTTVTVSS VL: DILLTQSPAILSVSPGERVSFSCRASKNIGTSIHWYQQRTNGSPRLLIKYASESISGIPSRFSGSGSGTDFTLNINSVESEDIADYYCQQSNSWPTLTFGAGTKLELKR , what is it?
result: 30%

Each recorded value in this set is attributed to patent US20250250357A1.
